- Test system: ERAP1
- EXPERIMENT_NOTES: 40 ng of ERAP1 in 20 mM Tris pH 8 buffer containing 100 mM NaCl
- EXPERIMENTAL_CONTEXT: human, 37°C, up to 1 hr
MEASURE_NAME: cleaved bond

Examples with their reported cleaved bond follow.
1) AYWANATRSG ... A-Y
2) LYWANAARSG ... L-Y
3) LYWAAATRSG ... L-Y
4) MYWANATRSG ... M-Y
5) LYWANATRAG ... L-Y
6) LYWANATRSA ... L-Y
7) LAWANATRSG ... L-A
8) LYAANATRSG ... L-Y
9) LYWANATRSG ... L-Y
10) LSIINFEKL ... L-S, 1 hr

Please find the next sequence below.
INPUT: Bench note: what cleaved bond did `LSIINFEKLAAAL` show?
OUTPUT: L-S, 1 hr
